Exercise: for every item that follows, state its recorded Kd.
biological target: Galectin-1 (Homo sapiens, UniProt P09382); experiment: fluorescence anisotropy assay, compound as inhibitor of galectin / fluorescein tagged saccharide probe interaction; format: binding
Sequence (P09382 whole entry): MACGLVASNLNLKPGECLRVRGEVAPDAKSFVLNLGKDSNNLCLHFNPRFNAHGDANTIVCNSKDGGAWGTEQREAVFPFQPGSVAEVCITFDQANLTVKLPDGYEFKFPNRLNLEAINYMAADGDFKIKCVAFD
Be sure to follow the number with its unit.

**Query** Report Kd for "OC[C@H]1O[C@H](Sc2ccc(Cl)c(Cl)c2)[C@H](OCC(F)(F)F)[C@@H](n2cc(-c3csc(O)n3)nn2)[C@H]1O"
**Result** 460 nM

**Query** Kindly indicate its recorded Kd. Item: "CO[C@@H]1[C@@H](n2cc(-c3csc(O)n3)nn2)[C@@H](O)[C@@H](CO)O[C@@H]1Sc1cncc(C#N)c1"
**Result** 150 nM

**Query** Give reported Kd value for "CO[C@@H]1[C@@H](n2cc(-c3nc(Cl)cs3)nn2)[C@@H](O)[C@@H](CO)O[C@@H]1Sc1cncc(SC(F)(F)F)c1"
**Result** 330 nM

**Query** Give Kd for "CO[C@@H]1[C@@H](n2cc(-c3nc(Cl)cs3)nn2)[C@@H](O)[C@@H](CO)O[C@@H]1Sc1cncc(C#N)c1"
**Result** 170 nM

**Query** Please list Kd recorded for the compound "CO[C@@H]1[C@@H](n2cc(-c3nc(C)cs3)nn2)[C@@H](O)[C@@H](CO)O[C@@H]1Sc1cc(Cl)cnc1-c1ccccn1"
**Result** 35 nM

**Query** Let me know recorded Kd for "CCO[C@@H]1[C@@H](n2cc(-c3nc(Cl)cs3)nn2)[C@@H](O)[C@@H](CO)O[C@@H]1Sc1cc(Br)cnc1C#N" , thanks.
**Result** 22 nM

**Query** Give Kd for "CO[C@@H]1[C@@H](n2cc(-c3nc(Cl)cs3)nn2)[C@@H](O)[C@@H](CO)O[C@@H]1Sc1cncc(SC)c1"
**Result** 190 nM

**Query** Please indicate Kd recorded for "CO[C@@H]1[C@@H](n2cc(-c3csc(Cl)n3)nn2)[C@@H](O)[C@@H](CO)O[C@@H]1Sc1cc(Cl)cnc1C#N"
**Result** 56 nM

**Query** For the compound "N#Cc1ccc(Cl)cc1S[C@H]1O[C@H](CO)[C@H](O)[C@H](n2cc(-c3nc(Cl)cs3)nn2)[C@H]1O" , give its measured Kd value.
**Result** 110 nM

**Query** Indicate its recorded Kd; the compound in question is "N#Cc1ncc(Cl)cc1S[C@H]1O[C@H](CO)[C@H](O)[C@H](n2cc(-c3nccs3)nn2)[C@H]1OCc1cc(F)c(O)c(F)c1"
**Result** 96 nM

**Query** // fetch Kd given entry "CO[C@@H]1[C@@H](n2cc(-c3nccs3)nn2)[C@@H](O)[C@@H](CO)O[C@@H]1Sc1cc(Cl)ccc1F"
**Result** 250 nM

**Query** Return reported Kd. Input compound: "CO[C@@H]1[C@@H](n2cc(-c3nc(Cl)cs3)nn2)[C@@H](O)[C@@H](CO)O[C@@H]1Sc1cc(Cl)ccc1C#N"
**Result** 22 nM

**Query** Specify measured Kd for "CCO[C@@H]1[C@@H](n2cc(-c3nc(Cl)cs3)nn2)[C@@H](O)[C@@H](CO)O[C@@H]1Sc1cc(Cl)cnc1C(=O)NC" .
**Result** 8 nM

**Query** Using the record for "OC[C@H]1O[C@H](Sc2ccc(Cl)c(Cl)c2)C[C@@H](n2cc(-c3csc(O)n3)nn2)[C@H]1O" , state its measured Kd.
**Result** 82 nM

**Query** Please report the measured Kd for "N#Cc1ccc(S[C@H]2O[C@H](CO)[C@H](O)[C@H](n3cc(-c4nc(Cl)cs4)nn3)[C@H]2O)cc1Cl"
**Result** 170 nM
